Data origin: the supplement of paper PMC8728848

# assay.system: Fuc(a1-2)Gal(b1-3)[Fuc(a1-4)]GlcNAc(b1-3)[Fuc(a1-3)[Gal(b1-4)]GlcNAc(b1-6)]Gal(b1-4)Glc
# assay.remarks: glycan array binding signal (z-score within array); higher = stronger binding
# run.conditions: glycan notation: IUPAC condensed, linker removed
The entries come from a sample that favours the strongest signals as a whole.
property: glycan array binding signal (z-score)
Form: value (number only, do not type unit).

Given item Cohesin-mDCIR (Macaca mulatta) (protein) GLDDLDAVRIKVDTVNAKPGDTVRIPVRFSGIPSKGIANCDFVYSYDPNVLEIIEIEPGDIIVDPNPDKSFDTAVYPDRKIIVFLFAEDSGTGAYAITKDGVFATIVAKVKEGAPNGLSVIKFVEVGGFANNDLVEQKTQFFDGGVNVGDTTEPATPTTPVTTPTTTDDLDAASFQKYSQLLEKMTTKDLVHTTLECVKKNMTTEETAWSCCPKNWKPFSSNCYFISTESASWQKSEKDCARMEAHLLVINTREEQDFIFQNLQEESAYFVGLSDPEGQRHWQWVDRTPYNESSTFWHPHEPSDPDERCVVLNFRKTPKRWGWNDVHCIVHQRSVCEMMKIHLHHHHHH , the value recorded as its glycan array binding signal (z-score) is -0.151

Given item HML-Native (Hypnea musciformis), P84871 (protein) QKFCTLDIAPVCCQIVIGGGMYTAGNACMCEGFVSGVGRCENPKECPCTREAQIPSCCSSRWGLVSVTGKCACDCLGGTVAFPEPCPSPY , the value recorded as its glycan array binding signal (z-score) is -0.188

Given item PFL (Pseudomonas fluorescens) (protein) MSKYAVANQWGGSSAPWHPGGTWVLGARDNQNVVAIEIKSGDGGKSFTGTMTYAGEGPIGFKAQRTGQNQYNVENQWGGNDAPWHPGGKWVIGGRDNQNVIALSVTSSDGGKNLSGTNTYANEGPIGFRGQIE , the value recorded as its glycan array binding signal (z-score) is -0.113

Given item rCnSL-proA (Clitocybe nebularis) (protein) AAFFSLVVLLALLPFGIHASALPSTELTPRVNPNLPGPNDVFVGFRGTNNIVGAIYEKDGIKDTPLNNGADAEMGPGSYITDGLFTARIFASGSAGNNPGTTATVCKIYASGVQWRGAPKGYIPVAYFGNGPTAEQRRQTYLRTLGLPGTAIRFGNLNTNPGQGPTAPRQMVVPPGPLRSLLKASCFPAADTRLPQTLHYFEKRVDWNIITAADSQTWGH , the value recorded as its glycan array binding signal (z-score) is -0.573

Given item OS9-MRH (Homo sapiens), Q13438 (protein) IPELLSPMRDAPCLLKTKDWWTYEFCYGRHIQQYHMEDSEIKGEVLYLGYYQSAFDWDDETAKASKQHRLKRYHSQTYGNGSKCDLNGRPREAEVRFLCDEGAGISGDYIDRVDEPLSCSYVLTIRTPRLCPHPLLRPPPSAAPQAI , the value recorded as its glycan array binding signal (z-score) is 0.3
